- Target System: 5-HT7R (Homo sapiens (Human), UniProt P34969)
- Sequence (P34969 whole entry): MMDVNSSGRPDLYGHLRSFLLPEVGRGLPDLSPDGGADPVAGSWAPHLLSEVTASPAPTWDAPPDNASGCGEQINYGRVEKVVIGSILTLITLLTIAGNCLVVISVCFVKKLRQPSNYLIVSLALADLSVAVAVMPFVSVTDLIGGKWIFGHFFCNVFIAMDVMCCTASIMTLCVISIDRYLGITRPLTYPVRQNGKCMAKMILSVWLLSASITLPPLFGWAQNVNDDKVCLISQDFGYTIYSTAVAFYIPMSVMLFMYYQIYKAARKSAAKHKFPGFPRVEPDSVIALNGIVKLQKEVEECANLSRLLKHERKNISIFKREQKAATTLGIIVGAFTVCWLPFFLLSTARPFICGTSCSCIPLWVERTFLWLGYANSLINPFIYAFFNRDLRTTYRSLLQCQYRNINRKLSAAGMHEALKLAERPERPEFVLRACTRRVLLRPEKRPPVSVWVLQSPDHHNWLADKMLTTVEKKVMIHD
- Test Summary: cAMP assay (luminescence-based, GloSensor)
- Type: cell-based
- Test Parameters: 10 μM; HEK293 cells transfected with human 5-HT7R and GloSensor-22F

{"columns": ["Compound", "inhibition at 10 µM"],
 "data": [
  ["COc1cccc(OC)c1-c1cccc(C2=NCCN2)c1 [Compound 33]", "32.8%"],
  ["Cc1ccc(-c2cc(C3=NCCN3)ccc2Cl)cc1 [Compound 40]", "48.9%"],
  ["Clc1ccc(-c2cc(CN3CCCC3)ccc2Cl)cc1 [Compound 15]", "63.8%"],
  ["COc1ccc(-c2cc(CN3CCCC3)ccc2Cl)cc1 [Compound 21]", "44.7%"],
  ["Clc1cccc(-c2cccc(C3=NCCN3)c2)c1 [Compound 25]", "50.9%"],
  ["COc1ccc(-c2cccc(CN3CCCC3)c2)cc1 [Compound 10]", "37.9%"],
  ["Clc1ccc(-c2cccc(CN3CCCC3)c2)cc1 [Compound 4]", "38.1%"],
  ["COc1ccccc1-c1c(Cl)ccc(CN2CCCC2)c1OC [Compound 22]", "42.7%"],
  ["COc1ccccc1-c1cccc(CN2CCCC2)c1 [Compound 8]", "57.1%"],
  ["Cc1ccccc1-c1cc(CN2CCCC2)ccc1Cl [Compound 16]", "73.3%"]
]}

* * *

- Target System: 5-HT7R (Homo sapiens (Human))
- Test Summary: cAMP assay (luminescence-based, GloSensor)
- Type: cell-based
- Test Parameters: HEK293 cells transfected with human 5-HT7R and GloSensor-22F
Rule: IC50 below 6 µM gives y, anything at or above gives n.

{"columns": ["Molecule", "Assigned Category"],
 "data": [
  ["COc1ccccc1-c1cccc(C2=NCCN2)c1 [Compound 30]", "y"],
  ["Clc1cccc(-c2cccc(CN3CCCC3)c2)c1 [Compound 3]", "y"],
  ["COc1cccc(-c2cccc(CN3CCCC3)c2)c1 [Compound 9]", "n"],
  ["Cc1ccccc1-c1cc(CN2CCCC2)ccc1Cl [Compound 16]", "n"],
  ["c1ccc(-c2cccc(C3=NCCN3)c2)cc1 [Compound 23]", "y"],
  ["COc1cccc(-c2cc(CN3CCCC3)ccc2Cl)c1 [Compound 20]", "n"]
]}

* * *

- Target System: 5-HT7R (Homo sapiens (Human))
- Test Summary: cAMP assay (luminescence-based, GloSensor)
- Type: cell-based
- Test Parameters: HEK293 cells transfected with human 5-HT7R and GloSensor-22F
Rule: IC50 below 5 µM gives 1.0, anything at or above gives 0.0.

{"columns": ["Smiles Text", "Assigned Category"],
 "data": [
  ["COc1cccc(-c2cccc(C3=NCCN3)c2)c1", 0.0],
  ["Cc1ccc(-c2cc(CN3CCCC3)ccc2Cl)cc1", 0.0],
  ["Clc1ccc(-c2cc(CN3CCCC3)ccc2Cl)cc1", 0.0],
  ["Clc1ccccc1-c1cc(CN2CCCC2)ccc1Cl", 1.0]
]}

* * *

- Target System: UniProtKB P34969
- Test Summary: Tango assay (β-arrestin signaling system)
- Format: cell-based
- Test Parameters: HTLA cells transfected with 5-HT7R-TCS-tTA construct
pIC50: −log10 of the molar value.

{"columns": ["Molecule", "pIC50"],
 "data": [
  ["Clc1cccc(-c2cccc(C3=NCCN3)c2)c1 [Compound 25]", 4.98],
  ["COc1ccccc1-c1cccc(C2=NCCN2)c1 [Compound 30]", 4.40],
  ["Clc1ccccc1-c1cc(C2=NCCN2)ccc1Cl [Compound 35]", 4.69],
  ["c1ccc(-c2cccc(CN3CCCC3)c2)cc1 [Compound 1]", 4.64],
  ["c1ccc(-c2cccc(C3=NCCN3)c2)cc1 [Compound 23]", 4.32],
  ["Clc1cccc(-c2cc(C3=NCCN3)ccc2Cl)c1 [Compound 36]", 5.00]
]}

* * *

- Target System: 5-HT7R (Homo sapiens (Human), UniProt P34969)
- Test Summary: Tango assay (β-arrestin signaling system)
- Assay type: cell-based
- Test Parameters: 10 μM; HTLA cells transfected with 5-HT7R-TCS-tTA construct
Recorded inhibition at 10 µM determines the group label, using Low (below 20%), Mid (20% to below 30%), High (30% or more)

{"columns": ["Compound", "Assigned Category"],
 "data": [
  ["COc1cccc(OC)c1-c1cccc(CN2CCCC2)c1 [Compound 11]", "Low"],
  ["COc1ccc(-c2cc(CN3CCCC3)ccc2Cl)cc1 [Compound 21]", "Low"],
  ["Cc1ccccc1-c1cccc(C2=NCCN2)c1 [Compound 27]", "Mid"],
  ["Cc1ccccc1-c1cc(C2=NCCN2)ccc1Cl [Compound 38]", "High"],
  ["Clc1ccc(C2=NCCN2)cc1-c1ccccc1 [Compound 34]", "High"],
  ["COc1ccccc1-c1cccc(C2=NCCN2)c1 [Compound 30]", "High"],
  ["Clc1cccc(-c2cccc(C3=NCCN3)c2)c1 [Compound 25]", "High"],
  ["COc1ccc(-c2cccc(C3=NCCN3)c2)cc1 [Compound 32]", "Low"],
  ["COc1ccccc1-c1cccc(CN2CCCC2)c1 [Compound 8]", "Low"],
  ["Cc1cccc(-c2cc(C3=NCCN3)ccc2Cl)c1 [Compound 39]", "Mid"]
]}

* * *

Examples of compounds with documented inhibition at 10 µM follow.
- Target System: 5-HT7R (Homo sapiens (Human), UniProt P34969)
- Test Summary: Tango assay (β-arrestin signaling system)
- Assay type: cell-based
- Test Parameters: 10 μM; HTLA cells transfected with 5-HT7R-TCS-tTA construct

{"columns": ["Smiles Text", "Measurement Unit", "inhibition at 10 µM"],
 "data": [
  ["COc1cccc(OC)c1-c1cc(C2=NCCN2)ccc1Cl", "%", 9.8],
  ["Cc1cccc(-c2cccc(C3=NCCN3)c2)c1", "%", 28.8],
  ["COc1cccc(-c2cccc(CN3CCCC3)c2)c1", "%", 16.7],
  ["Clc1ccccc1-c1cc(CN2CCCC2)ccc1Cl", "%", 50.5],
  ["COc1cccc(-c2cc(C3=NCCN3)ccc2Cl)c1", "%", 23.4],
  ["COc1ccc(-c2cccc(CN3CCCC3)c2)cc1", "%", 23.1],
  ["COc1cccc(-c2cc(CN3CCCC3)ccc2Cl)c1", "%", 26],
  ["COc1cccc(OC)c1-c1cccc(C2=NCCN2)c1", "%", 14],
  ["Cc1ccc(-c2cc(C3=NCCN3)ccc2Cl)cc1", "%", 31.3],
  ["Cc1ccc(-c2cccc(CN3CCCC3)c2)cc1", "%", 20.6]
]}

* * *

- Target System: UniProt:P34969
- Test Summary: cAMP assay (luminescence-based, GloSensor)
- Type: cell-based
- Test Parameters: 10 μM; HEK293 cells transfected with human 5-HT7R and GloSensor-22F
Use 40% as the dividing line for inhibition at 10 µM, with the line itself on the Fulfilled side and lower values as Not fulfilled.

{"columns": ["Smiles Text", "Assigned Category"],
 "data": [
  ["Cc1ccccc1-c1cccc(CN2CCCC2)c1", "Fulfilled"],
  ["COc1cccc(-c2cc(C3=NCCN3)ccc2Cl)c1", "Fulfilled"],
  ["COc1ccccc1-c1cc(C2=NCCN2)ccc1Cl", "Fulfilled"],
  ["Cc1ccc(-c2cccc(C3=NCCN3)c2)cc1", "Not fulfilled"],
  ["c1ccc(-c2cccc(C3=NCCN3)c2)cc1", "Fulfilled"]
]}

* * *

- Target System: 5-HT7R (Homo sapiens (Human), UniProt P34969)
- Test Summary: Tango assay (β-arrestin signaling system)
- Format: cell-based
- Test Parameters: 10 μM; HTLA cells transfected with 5-HT7R-TCS-tTA construct

{"columns": ["Smiles Text", "Target System", "inhibition at 10 µM [%]"],
 "data": [
  ["Clc1cccc(-c2cc(CN3CCCC3)ccc2Cl)c1", "5-HT7R (Homo sapiens (Human), UniProt P34969)", 27.9],
  ["Clc1ccc(-c2cc(CN3CCCC3)ccc2Cl)cc1", "5-HT7R (Homo sapiens (Human), UniProt P34969)", 34.3],
  ["Cc1ccc(-c2cc(CN3CCCC3)ccc2Cl)cc1", "5-HT7R (Homo sapiens (Human), UniProt P34969)", 21.5],
  ["COc1ccccc1-c1cc(C2=NCCN2)ccc1Cl", "5-HT7R (Homo sapiens (Human), UniProt P34969)", 27.7],
  ["c1ccc(-c2cccc(C3=NCCN3)c2)cc1", "5-HT7R (Homo sapiens (Human), UniProt P34969)", 44.2],
  ["COc1cccc(-c2cccc(C3=NCCN3)c2)c1", "5-HT7R (Homo sapiens (Human), UniProt P34969)", 27.8],
  ["Cc1ccccc1-c1cc(CN2CCCC2)ccc1Cl", "5-HT7R (Homo sapiens (Human), UniProt P34969)", 30.9],
  ["Clc1cccc(-c2cccc(CN3CCCC3)c2)c1", "5-HT7R (Homo sapiens (Human), UniProt P34969)", 33.2]
]}
